Ref: the Kinase Knowledgebase extract (Sharma et al. 2016)

Attribute: pIC50
# Measured Target: PIK3CD (Human) (UniProt O00329)
# Sequence (O00329 whole entry, looked up): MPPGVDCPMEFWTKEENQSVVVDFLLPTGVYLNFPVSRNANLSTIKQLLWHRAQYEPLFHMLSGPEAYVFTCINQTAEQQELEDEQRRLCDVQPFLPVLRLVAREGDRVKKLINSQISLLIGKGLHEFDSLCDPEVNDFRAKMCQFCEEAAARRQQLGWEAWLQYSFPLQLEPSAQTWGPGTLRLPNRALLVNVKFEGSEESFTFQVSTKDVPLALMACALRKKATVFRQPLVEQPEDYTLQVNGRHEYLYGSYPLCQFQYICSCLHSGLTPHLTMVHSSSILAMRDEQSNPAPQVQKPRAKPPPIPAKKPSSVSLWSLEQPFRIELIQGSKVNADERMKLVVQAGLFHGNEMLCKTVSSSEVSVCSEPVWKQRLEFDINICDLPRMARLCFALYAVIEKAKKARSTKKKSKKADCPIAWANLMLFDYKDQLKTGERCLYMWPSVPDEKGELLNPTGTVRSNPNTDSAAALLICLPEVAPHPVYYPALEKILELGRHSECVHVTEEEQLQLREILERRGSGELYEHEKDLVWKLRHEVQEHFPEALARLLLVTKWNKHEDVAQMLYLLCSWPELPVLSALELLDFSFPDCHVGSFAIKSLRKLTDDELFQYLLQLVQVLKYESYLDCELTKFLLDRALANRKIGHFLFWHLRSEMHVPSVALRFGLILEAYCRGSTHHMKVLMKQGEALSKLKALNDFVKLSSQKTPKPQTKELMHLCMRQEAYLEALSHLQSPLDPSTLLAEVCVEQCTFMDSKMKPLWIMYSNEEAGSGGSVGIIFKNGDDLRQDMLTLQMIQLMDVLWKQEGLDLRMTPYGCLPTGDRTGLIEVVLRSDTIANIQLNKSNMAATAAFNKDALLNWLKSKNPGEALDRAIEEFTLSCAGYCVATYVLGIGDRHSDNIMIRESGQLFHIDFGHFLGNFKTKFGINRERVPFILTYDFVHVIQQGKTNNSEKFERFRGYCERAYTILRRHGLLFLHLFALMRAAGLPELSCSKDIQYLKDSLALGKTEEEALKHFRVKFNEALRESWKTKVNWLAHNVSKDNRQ
# Experiment: Assessment of PIK3CD Kinase Activity
pIC50: −log10 of the molar value.

Please review the following examples before continuing.
- Compound Structure: "C[C@H](Nc1ccnn2ccnc12)c1cc2scc(Cl)c2c(=O)n1-c1ccccc1"
  pIC50: "> 7.00"
- Compound Structure: "C[C@@H](c1cc2cccc(Cl)c2c(=O)n1-c1ccccc1)n1c(=O)[nH]c2cnc(N)nc21"
  pIC50: "< 5.00"
- Compound Structure: "C[C@H](Nc1ncnc2cccnc12)c1cc2cccc(C(F)(F)F)c2c(=O)n1-c1cccc(F)c1"
  pIC50: "> 7.00"
- Compound Structure: "COc1ncc(-c2cccc3nc([C@H](C)Nc4nc(N)nc5cccnc45)n(-c4ccccc4)c(=O)c23)cn1"
  pIC50: "> 7.00"

Shifting focus to the compound that follows.
[ask] Give the reported pIC50 for "COc1ncc(-c2cccc3cc([C@H](C)Nc4ccnn5ccnc45)n(-c4ccccc4)c(=O)c23)cn1" (system: PIK3CD (Human) (UniProt O00329)).
[reply] > 7.00
